Species: Rattus norvegicus
Assay: Open TG-GATES - Regimen: Single
Type: toxicity, organism-based, Sprague-Dawley
Set-up: regimen Single, gender Male, age 6 weeks
Conditions: in vivo, po, 0 mg/kg, 24 h, tissue Blood, route gavage, dose level Control
Could you please report measured Ht for the items listed next?
Respond with the bare value in %.

Report Ht for `Cc1cccc(Nc2ccccc2C(=O)O)c1C`
38.5

Report Ht for CC(=O)Nc1nnc(S(N)(=O)=O)s1 [ACETAZOLAMIDE]
38.7

Report Ht for `CN(C)[C@@H]1C(O)=C(C(N)=O)C(=O)[C@@]2(O)C(O)=C3C(=O)c4c(O)cccc4[C@@](C)(O)[C@H]3C[C@@H]12`
39.7

Report Ht for `C#C[C@]1(O)CC[C@H]2[C@@H]3CCC4=Cc5oncc5C[C@]4(C)[C@H]3CC[C@@]21C`
40.2

Report Ht for CC(CN1c2ccccc2Sc2ccccc21)N(C)C (stereo not drawn)
40.2

Report Ht for `Clc1c(Cl)c(Cl)c(Cl)c(Cl)c1Cl`
39.5

Report Ht for COc1cc([C@@H]2c3cc4c(cc3[C@@H](O[C@@H]3O[C@@H]5CO[C@@H](C)O[C@H]5[C@H](O)[C@H]3O)[C@H]3COC(=O)[C@H]23)OCO4)cc(OC)c1O [ETOPOSIDE]
38.4

Report Ht for C1CCC(C(CC2CCCCN2)C2CCCCC2)CC1 (stereo not drawn)
39.4

* * *

Organism: Rattus norvegicus
Experiment: Open TG-GATES - Regimen: Daily Repeat
Type: toxicity, organism-based, Sprague-Dawley
Design: regimen Daily Repeat, gender Male, age 6 weeks
Conditions: in vivo, po, 0 mg/kg, […], tissue Plasma, route gavage, dose level Control, time 7 day
Could you please report measured TBIL for the items listed next?
Respond with the bare value in mg/dL.

Report TBIL for `CN1C(C(=O)Nc2ccccn2)=C(O)c2sc(Cl)cc2S1(=O)=O`
0.2

Report TBIL for `CN(C)[C@@H]1C(O)=C(C(N)=O)C(=O)[C@@]2(O)C(O)=C3C(=O)c4c(O)cccc4[C@@](C)(O)[C@H]3C[C@@H]12`
0.3

Report TBIL for `C#C[C@]1(O)CC[C@H]2[C@@H]3CCC4=Cc5oncc5C[C@]4(C)[C@H]3CC[C@@]21C`
0.004

Report TBIL for CC(=O)Nc1nnc(S(N)(=O)=O)s1 [ACETAZOLAMIDE]
0.002

Report TBIL for C1CCC(C(CC2CCCCN2)C2CCCCC2)CC1 (centres undefined)
0.014

Report TBIL for CC(CN1c2ccccc2Sc2ccccc21)N(C)C (centres undefined)
0.012

Report TBIL for `Clc1c(Cl)c(Cl)c(Cl)c(Cl)c1Cl`
0.4

Report TBIL for `Cc1cccc(Nc2ccccc2C(=O)O)c1C`
0.1

Report TBIL for `CCOC(=O)[C@H](CCc1ccccc1)N[C@@H](C)C(=O)N1CCC[C@H]1C(=O)O`
0.4

* * *

Species: Rattus norvegicus
Experiment: Open TG-GATES - Regimen: Single
Assay type: toxicity, organism-based, Sprague-Dawley
Set-up: regimen Single, gender Male, age 6 weeks
Conditions: in vivo, po, 0 mg/kg, 24 h, tissue Plasma, route gavage, dose level Control
attribute measured: GLC (mg/dL)
Respond with the bare value in mg/dL.

Report GLC for CC(=O)Nc1nnc(S(N)(=O)=O)s1 [ACETAZOLAMIDE]
201.2

Report GLC for `CCOC(=O)[C@H](CCc1ccccc1)N[C@@H](C)C(=O)N1CCC[C@H]1C(=O)O`
198.8

Report GLC for `C#C[C@]1(O)CC[C@H]2[C@@H]3CCC4=Cc5oncc5C[C@]4(C)[C@H]3CC[C@@]21C`
197.8

Report GLC for C1CCC(C(CC2CCCCN2)C2CCCCC2)CC1 (stereo not given)
196.6

Report GLC for COc1cc([C@@H]2c3cc4c(cc3[C@@H](O[C@@H]3O[C@@H]5CO[C@@H](C)O[C@H]5[C@H](O)[C@H]3O)[C@H]3COC(=O)[C@H]23)OCO4)cc(OC)c1O [ETOPOSIDE]
196.6

* * *

Could you please report measured KIDNEY_R for the items listed next?
Species: Rattus norvegicus
Experiment: Open TG-GATES - Regimen: Daily Repeat
Type: toxicity, organism-based, Sprague-Dawley
Set-up: regimen Daily Repeat, gender Male, age 6 weeks
Details: in vivo, po, 0 mg/kg, […], tissue Kidney, route gavage, dose level Control, time 28 day
Respond with the bare value in g.

Report KIDNEY_R for `O=C(O)Cc1ccccc1Nc1c(Cl)cccc1Cl`
1.4

Report KIDNEY_R for CC(CN1c2ccccc2Sc2ccccc21)N(C)C (stereo not drawn)
1.4

Report KIDNEY_R for `Clc1c(Cl)c(Cl)c(Cl)c(Cl)c1Cl`
1.5

* * *

Species on record: Rattus norvegicus
Experiment: Open TG-GATES - Regimen: Daily Repeat
Assay type: toxicity, organism-based, Sprague-Dawley
Design: regimen Daily Repeat, gender Male, age 6 weeks
Conditions: in vivo, po, 0 mg/kg, […], tissue Plasma, route gavage, dose level Control, time 7 day
attribute measured: K (meq/L)
Respond with the bare value in meq/L.

Report K for `CCOC(=O)[C@H](CCc1ccccc1)N[C@@H](C)C(=O)N1CCC[C@H]1C(=O)O`
5

Report K for C1CCC(C(CC2CCCCN2)C2CCCCC2)CC1 (stereo not drawn)
4.1

Report K for `Cc1cccc(Nc2ccccc2C(=O)O)c1C`
3.8

* * *

Species on record: Rattus norvegicus
Assay: Open TG-GATES - Regimen: Daily Repeat
Assay type: toxicity, organism-based, Sprague-Dawley
Set-up: regimen Daily Repeat, gender Male, age 6 weeks
Conditions: in vivo, po, 0 mg/kg, […], tissue Blood, route gavage, dose level Control, time 28 day
Could you please report measured Neu for the items listed next?
Respond with the bare value in %.

Report Neu for `Clc1c(Cl)c(Cl)c(Cl)c(Cl)c1Cl`
10.8

Report Neu for `CN(C)[C@@H]1C(O)=C(C(N)=O)C(=O)[C@@]2(O)C(O)=C3C(=O)c4c(O)cccc4[C@@](C)(O)[C@H]3C[C@@H]12`
11.6

Report Neu for `C#C[C@]1(O)CC[C@H]2[C@@H]3CCC4=Cc5oncc5C[C@]4(C)[C@H]3CC[C@@]21C`
13.6

Report Neu for `O=C(O)Cc1ccccc1Nc1c(Cl)cccc1Cl`
11.4

* * *

Species on record: Rattus norvegicus
Assay: Open TG-GATES - Regimen: Daily Repeat
Format: toxicity, organism-based, Sprague-Dawley
Parameters: regimen Daily Repeat, gender Male, age 6 weeks
Conditions: in vivo, po, 0 mg/kg, […], tissue Plasma, route gavage, dose level Control, time 14 day
attribute measured: TG (mg/dL)
Respond with the bare value in mg/dL.

Report TG for Clc1c(Cl)c(Cl)c(Cl)c(Cl)c1Cl [PERCHLOROBENZENE]
136.4

Report TG for C#C[C@]1(O)CC[C@H]2[C@@H]3CCC4=Cc5oncc5C[C@]4(C)[C@H]3CC[C@@]21C [DANAZOL]
139.8

Report TG for CC(CN1c2ccccc2Sc2ccccc21)N(C)C (stereo unspecified) [PROMETHAZINE]
133

Report TG for CN1C(C(=O)Nc2ccccn2)=C(O)c2sc(Cl)cc2S1(=O)=O [LORNOXICAM]
118.4

Report TG for CN(C)[C@@H]1C(O)=C(C(N)=O)C(=O)[C@@]2(O)C(O)=C3C(=O)c4c(O)cccc4[C@@](C)(O)[C@H]3C[C@@H]12 [TETRACYCLINE]
134.8

Report TG for `CCOC(=O)[C@H](CCc1ccccc1)N[C@@H](C)C(=O)N1CCC[C@H]1C(=O)O`
172

* * *

Could you please report measured CRE for the items listed next?
Species on record: Rattus norvegicus
Assay: Open TG-GATES - Regimen: Single
Assay type: toxicity, organism-based, Sprague-Dawley
Design: regimen Single, gender Male, age 6 weeks
Conditions: in vivo, po, 0 mg/kg, 3 h, tissue Plasma, route gavage, dose level Control
Respond with the bare value in mg/dL.

Report CRE for `CCOC(=O)[C@H](CCc1ccccc1)N[C@@H](C)C(=O)N1CCC[C@H]1C(=O)O`
0.5

Report CRE for `Cc1cccc(Nc2ccccc2C(=O)O)c1C`
0.4

Report CRE for `C#C[C@]1(O)CC[C@H]2[C@@H]3CCC4=Cc5oncc5C[C@]4(C)[C@H]3CC[C@@]21C`
0.1

Report CRE for `CN1C(C(=O)Nc2ccccn2)=C(O)c2sc(Cl)cc2S1(=O)=O`
0.4

* * *

Species on record: Rattus norvegicus
Experiment: Open TG-GATES - Regimen: Single
Format: toxicity, organism-based, Sprague-Dawley
Set-up: regimen Single, gender Male, age 6 weeks
Details: in vivo, po, 0 mg/kg, 9 h, tissue Plasma, route gavage, dose level Control
Could you please report measured Ca for the items listed next?
Respond with the bare value in mg/dL.

Report Ca for Clc1c(Cl)c(Cl)c(Cl)c(Cl)c1Cl [PERCHLOROBENZENE]
10.7

Report Ca for `CCOC(=O)[C@H](CCc1ccccc1)N[C@@H](C)C(=O)N1CCC[C@H]1C(=O)O`
10.7

Report Ca for COc1cc([C@@H]2c3cc4c(cc3[C@@H](O[C@@H]3O[C@@H]5CO[C@@H](C)O[C@H]5[C@H](O)[C@H]3O)[C@H]3COC(=O)[C@H]23)OCO4)cc(OC)c1O [ETOPOSIDE]
10.6

Report Ca for CC(=O)Nc1nnc(S(N)(=O)=O)s1 [ACETAZOLAMIDE]
10.9
